# Tested on: A498 renal
# ASSAY_PROCEDURE: NCI tumour cell line growth inhibition, 48 h
Threshold rule: TGI greater than or equal to 20 µM is rule met; below that, rule not met.

Q. Given the entry "N/C(=N\N=C/c1cc(Cl)cc(Cl)c1O)NO" , answer whether its TGI meets or surpasses 20 µM.
A. rule not met

Q. Is reported TGI greater than or equal to 20 µM here: c1cc(C2N3CCCN2CC3)ccn1 (stereo not given)
A. rule met

Q. # bool: TGI of "c1ccc([P+](CCC[P+](c2ccccc2)(c2ccccc2)c2ccccc2)(c2ccccc2)c2ccccc2)cc1" >= 20 µM
A. rule met

* * *

# Tested on: EKVX NSCLC
# ASSAY_PROCEDURE: NCI tumour cell line growth inhibition, 48 h; in the data active means GI50 below about 0.43 µM; inactive means the rest
The reply should name one outcome from active, inactive

Please review the entries below; each comes with its answer.
C=C(CN(CCN1CCOCC1)CC(=C)c1ccc(C(=O)Nc2ccccc2N)cc1)c1ccc(C(=O)Nc2ccccc2N)cc1	inactive
c1cc(-c2cnn3nc(N4CCOCC4)ccc23)nc(NC2CC2)n1	inactive
O=C(/C=C\c1ccc(OCCCCCC[P+](c2ccccc2)(c2ccccc2)c2ccccc2)cc1)c1ccc2c(c1)OCCO2	inactive
O=C(Nc1ccc([N+](=O)[O-])cc1)c1cc2ccccc2cc1O	active
Cc1ccc2oc(=O)cc(C3c4ccc([nH]4)C(c4cc(=O)oc5ccc(C)cc45)c4ccc([nH]4)C(c4cc(=O)oc5ccc(C)cc45)c4ccc([nH]4)C(c4cc(=O)oc5ccc(C)cc45)c4ccc3[nH]4)c2c1 (stereo not given)	active

Q. What outcome does the record of this test show for "Cc1cc(S(=O)(=O)Nc2nc3ccsc3c(=O)n2Cc2ccccc2)c(S)cc1Cl" ?
A. inactive

Q. Dear colleague, could you share the recorded outcome for C=CC1=C(C)C(Cc2[nH]c(/C=c3\[nH]/c(=C/C4=NC(=O)C(C)/C4=C\C)c(C)c3CCC(=O)O)c(CCC(=O)OC)c2C)NC1=O (stereo not given) when you have a moment?
A. inactive

Q. I'd appreciate the recorded outcome for "COc1ccc(Cn2cc3c(c2-c2ccccc2)CCc2cncnc2-3)cc1" from this test.
A. inactive

Q. Check the results log: what was the call for "O=C1C(Cl)=C(Nc2ccc3c(c2NC2=C(Cl)C(=O)c4ccccc4C2=O)C(=O)c2ccccc2C3=O)C(=O)c2ccccc21" ?
A. inactive

Q. Given CC1CCC(C#N)(NOC2=NCCN2)CC1 (stereo not given) , state the outcome it received in this test.
A. inactive

Q. Called result for "Clc1ccc2c(NCCN3CCN(c4ccnc(N5CCCC5)n4)CC3)ccnc2c1"
A. inactive

Q. Could you check what this test reported for "NCCCn1c2c(c3ccc([N+](=O)[O-])cc3c1=O)C(=O)c1cc(Cl)ccc1-2" ?
A. active

Q. Hello, I am checking results. What call was entered for CCC[CH2][Sn]1([CH2]CCC)[O]CC([CH2][Sn]([c]2ccccc2)([c]2ccccc2)[c]2ccccc2)[O]1 (stereo not given) ?
A. inactive

Q. Look up the recorded call for "CCOC(=O)c1cn2ncnc(Oc3ccc(NC(=O)NCCN(CC)CC)c(Cl)c3)c2c1C" in this test.
A. inactive

Q. Please let me know the test result on file for "CO[C@H]1/C=C/C[C@H](C)[C@@H](C)S(=O)(=O)NC(=O)c2ccc3c(c2)N(C[C@@H]2CC[C@H]21)C[C@@]1(CCCc2cc(Cl)ccc21)CO3" .
A. inactive

This collection of values is drawn from PubChem BioAssay (NCI).
